# Organism: Rattus norvegicus
# assayDetails: Open TG-GATES - Regimen: Daily Repeat
# Type: toxicity, organism-based, Sprague-Dawley
# Design: regimen Daily Repeat, gender Male, age 6 weeks
# assayConditions: in vivo, po, 0 mg/kg, […], tissue Plasma, route gavage, dose level Control, time 7 day
# if value of LDH reaches 100 IU/L, tag TRUE; if it stays below, tag FALSE

Consider the worked cases shown below.
compound: C1CCC(C(CC2CCCCN2)C2CCCCC2)CC1 (stereo not given)
assignedCategory: TRUE
//
compound: Clc1c(Cl)c(Cl)c(Cl)c(Cl)c1Cl
assignedCategory: FALSE
//
compound: CCOC(=O)[C@H](CCc1ccccc1)N[C@@H](C)C(=O)N1CCC[C@H]1C(=O)O
assignedCategory: FALSE
//
compound: CC(=O)Nc1nnc(S(N)(=O)=O)s1 [ACETAZOLAMIDE]
assignedCategory: TRUE

Consider the additional compound presented here.
Q: Kindly determine if LDH recorded for C#C[C@]1(O)CC[C@H]2[C@@H]3CCC4=Cc5oncc5C[C@]4(C)[C@H]3CC[C@@]21C is above or exactly 100 IU/L.
A: TRUE

###

# Species on record: Rattus norvegicus
# assayDetails: Open TG-GATES - Regimen: Daily Repeat
# Format: toxicity, organism-based, Sprague-Dawley
# Design: regimen Daily Repeat, gender Male, age 6 weeks
# assayConditions: in vivo, po, 0 mg/kg, […], tissue Blood, route gavage, dose level Control, time 14 day
# Neu per entry
Give the number first and the unit second.

Q: What measured Neu goes with CN(C)[C@@H]1C(O)=C(C(N)=O)C(=O)[C@@]2(O)C(O)=C3C(=O)c4c(O)cccc4[C@@](C)(O)[C@H]3C[C@@H]12 ?
A: 13.6%

Q: Suppose we examine the compound C#C[C@]1(O)CC[C@H]2[C@@H]3CCC4=Cc5oncc5C[C@]4(C)[C@H]3CC[C@@]21C ; what Neu value has been reported?
A: 13.4%

Q: May I ask what Neu has been recorded for Clc1c(Cl)c(Cl)c(Cl)c(Cl)c1Cl ?
A: 13.8%

Q: I am curious: what Neu value has been reported for CC(=O)Nc1nnc(S(N)(=O)=O)s1 [ACETAZOLAMIDE] ?
A: 14%

Q: Fill blank: measured Neu of the compound CC(CN1c2ccccc2Sc2ccccc21)N(C)C (centres undefined) is ____.
A: 15.8%

Q: Suppose we examine the compound CCOC(=O)[C@H](CCc1ccccc1)N[C@@H](C)C(=O)N1CCC[C@H]1C(=O)O ; what Neu value has been reported?
A: 13.4%

Q: Which Neu is listed for C1CCC(C(CC2CCCCN2)C2CCCCC2)CC1 (centres undefined) ?
A: 15.2%

Q: Need Neu, item Cc1cccc(Nc2ccccc2C(=O)O)c1C
A: 18.6%

Q: Field request: Neu | item: CN1C(C(=O)Nc2ccccn2)=C(O)c2sc(Cl)cc2S1(=O)=O
A: 14.2%

###

# Organism: Rattus norvegicus
# assayDetails: Open TG-GATES - Regimen: Daily Repeat
# Format: toxicity, organism-based, Sprague-Dawley
# Set-up: regimen Daily Repeat, gender Male, age 6 weeks
# assayConditions: in vivo, po, 0 mg/kg, […], tissue Blood, route gavage, dose level Control, time 14 day
readout: RBC (x10_4/ul)
Respond with the bare value in x10_4/ul.

Some compounds with known RBC results, for comparison:
compound: Cc1cccc(Nc2ccccc2C(=O)O)c1C
RBC [x10_4/ul]: 667.4
--
compound: CN1C(C(=O)Nc2ccccn2)=C(O)c2sc(Cl)cc2S1(=O)=O
RBC [x10_4/ul]: 687.4
--
compound: CN(C)[C@@H]1C(O)=C(C(N)=O)C(=O)[C@@]2(O)C(O)=C3C(=O)c4c(O)cccc4[C@@](C)(O)[C@H]3C[C@@H]12
RBC [x10_4/ul]: 668.4
--
compound: Clc1c(Cl)c(Cl)c(Cl)c(Cl)c1Cl
RBC [x10_4/ul]: 681.2
--
compound: CCOC(=O)[C@H](CCc1ccccc1)N[C@@H](C)C(=O)N1CCC[C@H]1C(=O)O
RBC [x10_4/ul]: 675.8
--
compound: CC(=O)Nc1nnc(S(N)(=O)=O)s1 [ACETAZOLAMIDE]
RBC [x10_4/ul]: 688.2

Q: I would be grateful if you could share the reported RBC for CC(CN1c2ccccc2Sc2ccccc21)N(C)C (centres undefined) .
A: 681

Q: Return reported RBC; argument: C1CCC(C(CC2CCCCN2)C2CCCCC2)CC1 (centres undefined)
A: 702.8

Q: So what's the measured RBC for this one? C#C[C@]1(O)CC[C@H]2[C@@H]3CCC4=Cc5oncc5C[C@]4(C)[C@H]3CC[C@@]21C
A: 685.8

###

# Organism: Rattus norvegicus
# assayDetails: Open TG-GATES - Regimen: Single
# Type: toxicity, organism-based, Sprague-Dawley
# Design: regimen Single, gender Male, age 6 weeks
# assayConditions: in vivo, po, 0 mg/kg, 24 h, tissue Plasma, route gavage, dose level Control
Listed here are compounds together with their documented ALT.
Write down the numeric answer in IU/L and omit the unit.

compound: Clc1c(Cl)c(Cl)c(Cl)c(Cl)c1Cl
ALT, IU/L: 31.2
--
compound: C#C[C@]1(O)CC[C@H]2[C@@H]3CCC4=Cc5oncc5C[C@]4(C)[C@H]3CC[C@@]21C
ALT, IU/L: 48.2
--
compound: C1CCC(C(CC2CCCCN2)C2CCCCC2)CC1 (stereo not given)
ALT, IU/L: 42.6
--
compound: Cc1cccc(Nc2ccccc2C(=O)O)c1C
ALT, IU/L: 39
--
compound: CN1C(C(=O)Nc2ccccn2)=C(O)c2sc(Cl)cc2S1(=O)=O
ALT, IU/L: 35.2

Q: Reported ALT for CC(CN1c2ccccc2Sc2ccccc21)N(C)C (stereo not given) : what is it?
A: 44.2

Q: Given the compound CN(C)[C@@H]1C(O)=C(C(N)=O)C(=O)[C@@]2(O)C(O)=C3C(=O)c4c(O)cccc4[C@@](C)(O)[C@H]3C[C@@H]12 , what is its reported ALT?
A: 45.4

Q: // query ALT value for entry O=[N+]([O-])c1ccc2c(c1)Cc1ccccc1-2
A: 41.6

Q: # lookup: ALT of COc1cc([C@@H]2c3cc4c(cc3[C@@H](O[C@@H]3O[C@@H]5CO[C@@H](C)O[C@H]5[C@H](O)[C@H]3O)[C@H]3COC(=O)[C@H]23)OCO4)cc(OC)c1O [ETOPOSIDE]
A: 38.2

Q: Quick check: ALT of CCOC(=O)[C@H](CCc1ccccc1)N[C@@H](C)C(=O)N1CCC[C@H]1C(=O)O ?
A: 39.8

###

# Species on record: Rattus norvegicus
# assayDetails: Open TG-GATES - Regimen: Daily Repeat
# Type: toxicity, organism-based, Sprague-Dawley
# Set-up: regimen Daily Repeat, gender Male, age 6 weeks
# assayConditions: in vivo, po, 0 mg/kg, […], tissue Blood, route gavage, dose level Control, time 7 day
Classification field: enter 1 for Lym values not below 80%, -1 for values below it.

Use these answered entries as a reference point.
molecule: CC(CN1c2ccccc2Sc2ccccc21)N(C)C (stereo not drawn)
assignedCategory: 1

molecule: Clc1c(Cl)c(Cl)c(Cl)c(Cl)c1Cl
assignedCategory: -1

Now, please, on to the next molecule.
Q: Reported Lym at or above 80%? C#C[C@]1(O)CC[C@H]2[C@@H]3CCC4=Cc5oncc5C[C@]4(C)[C@H]3CC[C@@]21C
A: -1

###

Here the recorded LIVER is given for each entry.
# Organism: Rattus norvegicus
# assayDetails: Open TG-GATES - Regimen: Single
# Type: toxicity, organism-based, Sprague-Dawley
# Design: regimen Single, gender Male, age 6 weeks
# assayConditions: in vivo, po, 0 mg/kg, 9 h, tissue Liver, route gavage, dose level Control
Respond numerically; units are g and should not be typed.

// solved cases for LIVER follow
molecule: Cc1cccc(Nc2ccccc2C(=O)O)c1C
quantityUnit: g
recordedValue: 8.7
--
molecule: Clc1c(Cl)c(Cl)c(Cl)c(Cl)c1Cl
quantityUnit: g
recordedValue: 8.7
--
molecule: CCOC(=O)[C@H](CCc1ccccc1)N[C@@H](C)C(=O)N1CCC[C@H]1C(=O)O
quantityUnit: g
recordedValue: 9.4
--
molecule: CN1C(C(=O)Nc2ccccn2)=C(O)c2sc(Cl)cc2S1(=O)=O
quantityUnit: g
recordedValue: 9.3
--
molecule: CC(=O)Nc1nnc(S(N)(=O)=O)s1 [ACETAZOLAMIDE]
quantityUnit: g
recordedValue: 8.8

Q: Given the molecule CC(CN1c2ccccc2Sc2ccccc21)N(C)C (stereo not given) , what is its reported LIVER?
A: 8.7

Q: Quick check: LIVER of C#C[C@]1(O)CC[C@H]2[C@@H]3CCC4=Cc5oncc5C[C@]4(C)[C@H]3CC[C@@]21C ?
A: 9.1

Q: Given C1CCC(C(CC2CCCCN2)C2CCCCC2)CC1 (stereo not given) , state its recorded LIVER.
A: 9.2

Q: Can you look up the measured LIVER of CN(C)[C@@H]1C(O)=C(C(N)=O)C(=O)[C@@]2(O)C(O)=C3C(=O)c4c(O)cccc4[C@@](C)(O)[C@H]3C[C@@H]12 for me?
A: 7.5

Q: Would you mind telling me what LIVER value was observed for COc1cc([C@@H]2c3cc4c(cc3[C@@H](O[C@@H]3O[C@@H]5CO[C@@H](C)O[C@H]5[C@H](O)[C@H]3O)[C@H]3COC(=O)[C@H]23)OCO4)cc(OC)c1O [ETOPOSIDE] ?
A: 8.4
